- Measurement Target: mTORC1 (mTOR/GbL/Raptor) (Homo sapiens)
- Protocol: mTOR/GbL/Raptor (mTORC1) ELISA Assay
- Format: biochemical
- Experimental Context: 0.2 nM mTORC1, 10 μM ATP, 50 nM NHis-tagged 4E-BP1; phosphorylation of 4E-BP1; read-out: IC50
Observed Property: IC50

// batch mode: one IC50 value per listed entry
1. Nc1nc2ncc(-c3ccc4c(c3)CN(C(=O)N3CCC(=O)CC3c3cccc(F)c3)CCO4)cc2[nH]1 (stereo not shown)
2. CC1CCN(C(=O)N2CCOc3ccc(-c4cc(N)[nH]n4)cc3C2)CC1
3. COC(=O)Nc1nc2ccc(-c3ccc4c(c3)CN(C(=O)N3CCC(=O)CC3c3cccc(F)c3)CCO4)cc2[nH]1 (stereo not shown)
4. COC(=O)Nc1nc2ccc(-c3ccc4c(c3)CN(C(=O)N3CCC(C)CC3)CCO4)cc2[nH]1
5. Nc1cnc(-c2ccc3c(c2)CN(C(=O)N2CCC(C(F)(F)F)CC2)CCO3)cn1

1: ≤ 50 nM; 2: 700 to 2600 nM; 3: 50 to 250 nM; 4: 50 to 250 nM; 5: 250 to 700 nM

Give measured IC50 for every item shown.
1. COC(=O)Nc1nc2ncc(-c3ccc4c(c3)CN(C(=O)N3CCC(=O)CC3c3ccc(F)c(F)c3)CCO4)cc2[nH]1 (stereo not shown)
2. Cc1nc2ccc(-c3ccc4c(c3)CN(C(=O)N3C5CCC3c3ccccc35)CCO4)cc2[nH]1

["50 to 250 nM", "50 to 250 nM"]

* * *

- Measurement Target: mTORC1 (mTOR/GbL/Raptor) (Homo sapiens)
- Protocol: mTOR/GbL/Raptor (mTORC1) ELISA Assay
- Format: biochemical
- Experimental Context: 0.2 nM mTORC1, 10 μM ATP, 50 nM NHis-tagged 4E-BP1; phosphorylation of 4E-BP1; read-out: IC50
pIC50: −log10 of the molar value.
Can you tell me pIC50 for the items I'm about to list?

Cc1nc2ccc(-c3ccc4c(c3)CN(C(=O)N3CCC(=O)CC3c3ccc(F)c(F)c3)CCO4)cc2[nH]1 (stereo not shown)    6.60 to 7.30
O=C(N1CCC(C(F)(F)F)CC1)N1CCOc2ccc(-c3ccc(-c4ncc[nH]4)cc3)cc2C1    ≥ 7.30
Cc1nc2ccc(-c3ccc4c(c3)CN(C(=O)N3CCC(Cc5ccc(Cl)cc5)CC3)CCO4)cc2[nH]1    6.60 to 7.30
Nc1nc2ncc(-c3ccc4c(c3)CN(C(=O)N3CCC(CCF)CC3)CCO4)cc2[nH]1    ≥ 7.30
N#CC1CCN(C(=O)N2CCOc3ccc(-c4ccc(-c5ncc[nH]5)cc4)cc3C2)CC1    ≥ 7.30
CCOC(=O)C1CCCCN1C(=O)N1CCOc2ccc(-c3ccc4nc(C)[nH]c4c3)cc2C1 (stereo not shown)    5.59 to 6.15

Name the recorded pIC50 for COC(=O)Nc1nc2ccc(-c3ccc4c(c3)CN(C(=O)N3CCC(CF)CC3)CCO4)cc2[nH]1 .
6.60 to 7.30

* * *

- Measurement Target: UniProt P42336
- Sequence (P42336 whole entry): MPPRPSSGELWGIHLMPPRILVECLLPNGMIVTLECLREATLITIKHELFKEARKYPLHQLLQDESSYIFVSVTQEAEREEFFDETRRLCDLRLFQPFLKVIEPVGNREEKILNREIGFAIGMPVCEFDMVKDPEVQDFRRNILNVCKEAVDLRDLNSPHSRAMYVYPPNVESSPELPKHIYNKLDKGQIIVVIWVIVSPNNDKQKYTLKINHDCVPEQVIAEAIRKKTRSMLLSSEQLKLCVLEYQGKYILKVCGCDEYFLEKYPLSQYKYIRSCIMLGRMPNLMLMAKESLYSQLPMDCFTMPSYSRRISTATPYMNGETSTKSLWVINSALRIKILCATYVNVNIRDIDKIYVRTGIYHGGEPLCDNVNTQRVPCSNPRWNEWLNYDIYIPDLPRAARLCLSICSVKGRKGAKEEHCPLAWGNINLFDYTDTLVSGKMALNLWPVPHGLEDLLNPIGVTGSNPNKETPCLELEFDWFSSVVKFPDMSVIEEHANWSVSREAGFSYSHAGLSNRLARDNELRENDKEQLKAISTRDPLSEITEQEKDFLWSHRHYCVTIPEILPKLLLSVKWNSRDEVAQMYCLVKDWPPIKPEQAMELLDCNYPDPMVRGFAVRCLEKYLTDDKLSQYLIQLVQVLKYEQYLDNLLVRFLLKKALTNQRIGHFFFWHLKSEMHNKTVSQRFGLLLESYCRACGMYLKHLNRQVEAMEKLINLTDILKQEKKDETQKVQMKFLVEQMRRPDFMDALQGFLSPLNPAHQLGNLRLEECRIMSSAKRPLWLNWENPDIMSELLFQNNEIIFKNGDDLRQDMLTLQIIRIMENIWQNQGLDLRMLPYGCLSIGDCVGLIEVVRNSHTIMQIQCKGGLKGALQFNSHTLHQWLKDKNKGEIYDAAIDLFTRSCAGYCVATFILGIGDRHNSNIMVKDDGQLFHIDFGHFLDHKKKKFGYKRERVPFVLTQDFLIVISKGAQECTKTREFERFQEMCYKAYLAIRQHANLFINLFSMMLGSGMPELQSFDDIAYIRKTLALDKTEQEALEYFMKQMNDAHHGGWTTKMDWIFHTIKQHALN
- Sequence (P27986 whole entry partner): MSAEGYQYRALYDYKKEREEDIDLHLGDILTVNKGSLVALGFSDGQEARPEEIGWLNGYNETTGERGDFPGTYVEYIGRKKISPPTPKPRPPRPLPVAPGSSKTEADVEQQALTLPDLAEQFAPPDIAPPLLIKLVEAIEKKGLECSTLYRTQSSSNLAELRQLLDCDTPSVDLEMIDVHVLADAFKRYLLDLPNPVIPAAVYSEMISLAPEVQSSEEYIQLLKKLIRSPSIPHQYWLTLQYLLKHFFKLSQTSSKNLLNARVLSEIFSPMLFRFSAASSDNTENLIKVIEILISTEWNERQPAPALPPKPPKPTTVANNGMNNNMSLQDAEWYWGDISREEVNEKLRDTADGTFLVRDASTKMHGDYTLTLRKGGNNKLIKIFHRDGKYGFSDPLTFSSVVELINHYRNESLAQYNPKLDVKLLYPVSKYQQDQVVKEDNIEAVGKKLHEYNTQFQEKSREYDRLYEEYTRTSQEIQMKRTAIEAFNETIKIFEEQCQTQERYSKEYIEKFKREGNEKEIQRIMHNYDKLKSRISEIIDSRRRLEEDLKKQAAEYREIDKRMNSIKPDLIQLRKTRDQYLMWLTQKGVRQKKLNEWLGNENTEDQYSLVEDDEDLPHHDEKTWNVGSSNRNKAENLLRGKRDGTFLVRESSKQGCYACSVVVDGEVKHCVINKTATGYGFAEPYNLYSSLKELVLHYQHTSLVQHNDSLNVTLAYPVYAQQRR
Observed Property: IC50

CCN(Cc1ccccc1)C(=O)N1CCOc2ccc(-c3ccc4nc(C)[nH]c4c3)cc2C1    200 to 500 nM
CCNc1nc2ccc(-c3ccc4c(c3)CN(C(=O)N3CCC(CF)CC3)CCO4)cc2[nH]1    75 to 200 nM
Cc1ccc(OCC2CN(C(=O)N3CCOc4ccc(-c5ccc6nc(C)[nH]c6c5)cc4C3)CCO2)cc1 (stereo not drawn)    1000 to 3000 nM
Cc1nc2cc(-c3ccc4c(c3)CN(C(=O)N3CCC(=O)CC3c3cccc(F)c3)CCO4)cnc2[nH]1 (stereo not drawn)    200 to 500 nM
COC(=O)Nc1nc2ncc(-c3ccc4c(c3)CN(C(=O)N3CCC(=O)CC3c3ccc(F)c(F)c3)CCO4)cc2[nH]1 (stereo not drawn)    ≤ 75 nM
Cc1nc2ccc(-c3ccc4c(c3)CN(C(=O)N3CCC(S(C)(=O)=O)CC3)CCO4)cc2[nH]1    500 to 1000 nM

List IC50 for every entry below, keeping the order given.
1. O=C(N1CCC(C(F)F)CC1)N1CCOc2ccc(-c3ccc(-c4ncc[nH]4)cc3)cc2C1
2. Cc1nc2ccc(-c3ccc4c(c3)CN(C(=O)N3CCCC[C@@H]3c3ccccc3)CCO4)cc2[nH]1

1. 75 to 200 nM
2. ≤ 75 nM
